Item-by-item account of viability, T/C
Tested on: 885512-296-R-J2-PDC complex spheroid viability;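 further: spheroids exposed to the compounds for one week; percent of tumor spheroid viability relative to DMSO vehicle control wells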
Assay: Anticancer human tumor 885512-296-R-J2-PDC patient-derived breast carcinoma cell line growth inhibition [GQUAD]
Details: second compound 3.16 µM; first compound 3.16 µM; hits give low values
A number alone suffices; assume %.

Record excerpt, results attached:
Cc1cccc(N(C)C(=O)C2C(O)CCN2c2nc(C)cc(C(F)(F)F)c2C#N)c1 (stereo not given) + CN(C)c1ccc(Nc2c3ccc(NC(=O)CCN4CCCC4)cc3nc3cc(NC(=O)CCN4CCCC4)ccc23)cc1 ... 96.2
CC1COCCN1c1cc(C2(S(C)(=N)=O)CC2)nc(-c2ccnc3[nH]ccc23)n1 (stereo not given) + Cc1cnc(CNC(=O)c2c(=O)c3ccc(N4CCCN(C)CC4)nc3n3c2sc2ccccc23)cn1 ... 3.04
O=C(NO)c1cnc(N2CCN(S(=O)(=O)c3ccc4ccccc4c3)CC2)nc1 + CN(C)c1ccc(Nc2c3ccc(NC(=O)CCN4CCCC4)cc3nc3cc(NC(=O)CCN4CCCC4)ccc23)cc1 ... 0.29
CC(C)n1c(=O)n(C)c2cnc3cc(F)c(-c4ccc(OCCCN5CCCCC5)nc4)cc3c21 + Cc1[nH]c2ccc(F)cc2c1-c1nc2c3cccnc3c3ncccc3c2[nH]1 ... 10.8
CC1COCCN1c1cc(-c2ccnn2C)c2ccnc(-c3ccn[nH]3)c2n1 (stereo not given) + CN(C)c1ccc(Nc2c3ccc(NC(=O)CCN4CCCC4)cc3nc3cc(NC(=O)CCN4CCCC4)ccc23)cc1 ... 5.21
O=c1[nH]cc(F)c(=O)[nH]1 + Cc1cnc(CNC(=O)c2c(=O)c3ccc(N4CCCN(C)CC4)nc3n3c2sc2ccccc23)cn1 ... 29.4
CC(C)(O)C1CCC(Nc2ccc3ncc(-c4cccc(C(F)(F)F)c4)n3n2)CC1 (stereo not given) + Cc1cnc(CNC(=O)c2c(=O)c3ccc(N4CCCN(C)CC4)nc3n3c2sc2ccccc23)cn1 ... 0.1
CCCS(=O)(=O)Nc1ccc(F)c(C(=O)c2c[nH]c3ncc(-c4ccc(Cl)cc4)cc23)c1F + Cc1cnc(CNC(=O)c2c(=O)c3ccc(N4CCCN(C)CC4)nc3n3c2sc2ccccc23)cn1 ... 24.5
O=C(c1cc(Cc2n[nH]c(=O)c3ccccc23)ccc1F)N1CCN(C(=O)C2CC2)CC1 + Cc1[nH]c2ccc(F)cc2c1-c1nc2c3cccnc3c3ncccc3c2[nH]1 ... 6.15
Nc1ccn(C2OC(CO)C(O)C2(F)F)c(=O)n1 (stereo not given) + CN(C)c1ccc(Nc2c3ccc(NC(=O)CCN4CCCC4)cc3nc3cc(NC(=O)CCN4CCCC4)ccc23)cc1 ... 2.24

Entry CC1COCCN1c1cc(-c2ccnn2C)c2ccnc(-c3ccn[nH]3)c2n1 (stereo not given) + Cc1[nH]c2ccc(F)cc2c1-c1nc2c3cccnc3c3ncccc3c2[nH]1 , viability, T/C reported as 3.23

Entry CC(=O)O[C@H]1C(=O)[C@@]2(C)[C@H]([C@H](OC(=O)c3ccccc3)[C@]3(O)C[C@H](OC(=O)[C@H](O)[C@@H](NC(=O)c4ccccc4)c4ccccc4)C(C)=C1C3(C)C)[C@]1(OC(C)=O)CO[C@@H]1C[C@@H]2O + Cc1[nH]c2ccc(F)cc2c1-c1nc2c3cccnc3c3ncccc3c2[nH]1 , viability, T/C reported as 0.53

Entry COc1cc(C2c3cc4c(cc3C(OC3OC5COC(C)OC5C(O)C3O)C3COC(=O)C23)OCO4)cc(OC)c1O (stereo not given) + Cc1cnc(CNC(=O)c2c(=O)c3ccc(N4CCCN(C)CC4)nc3n3c2sc2ccccc23)cn1 , viability, T/C reported as 22.3

Entry CC(=O)O[C@H]1C(=O)[C@@]2(C)[C@H]([C@H](OC(=O)c3ccccc3)[C@]3(O)C[C@H](OC(=O)[C@H](O)[C@@H](NC(=O)c4ccccc4)c4ccccc4)C(C)=C1C3(C)C)[C@]1(OC(C)=O)CO[C@@H]1C[C@@H]2O + CN(C)c1ccc(Nc2c3ccc(NC(=O)CCN4CCCC4)cc3nc3cc(NC(=O)CCN4CCCC4)ccc23)cc1 , viability, T/C reported as 5.32

Entry C#Cc1c(F)ccc2cc(O)cc(-c3ncc4c(N5CC6CCC(C5)N6)nc(OCC56CCCN5CC(F)C6)nc4c3F)c12 (stereo not given) + Cc1[nH]c2ccc(F)cc2c1-c1nc2c3cccnc3c3ncccc3c2[nH]1 , viability, T/C reported as 0.26

Entry C=CC(=O)N1CCN(c2nc(=O)n(-c3c(C)ccnc3C(C)C)c3nc(-c4c(O)cccc4F)c(F)cc23)C(C)C1 (stereo not given) + Cc1[nH]c2ccc(F)cc2c1-c1nc2c3cccnc3c3ncccc3c2[nH]1 , viability, T/C reported as 32.9

Entry Nc1ccn(C2OC(CO)C(O)C2(F)F)c(=O)n1 (stereo not given) + Cc1cnc(CNC(=O)c2c(=O)c3ccc(N4CCCN(C)CC4)nc3n3c2sc2ccccc23)cn1 , viability, T/C reported as 0.12

Entry CC(C)(O)C1CCC(Nc2ccc3ncc(-c4cccc(C(F)(F)F)c4)n3n2)CC1 (stereo not given) + Cc1[nH]c2ccc(F)cc2c1-c1nc2c3cccnc3c3ncccc3c2[nH]1 , viability, T/C reported as 12.7

Entry CC(C)(O)C1CCC(Nc2ccc3ncc(-c4cccc(C(F)(F)F)c4)n3n2)CC1 (stereo not given) + CN(C)c1ccc(Nc2c3ccc(NC(=O)CCN4CCCC4)cc3nc3cc(NC(=O)CCN4CCCC4)ccc23)cc1 , viability, T/C reported as 4.35

Entry COc1ncnc(C2CC2)c1-c1ncc2cnn(Cc3ccc(-c4nc(C(F)(F)F)cn4C(C)C)cc3)c2n1 + Cc1[nH]c2ccc(F)cc2c1-c1nc2c3cccnc3c3ncccc3c2[nH]1 , viability, T/C reported as 3.49

Cited source: PubChem BioAssay AID2060490
